# subjectOfTest: human URAT1 (Homo sapiens, UniProt Q96S37)
# Construct: Full-length cDNA of human URAT1 (hURAT1)
# Sequence (Q96S37 1-553): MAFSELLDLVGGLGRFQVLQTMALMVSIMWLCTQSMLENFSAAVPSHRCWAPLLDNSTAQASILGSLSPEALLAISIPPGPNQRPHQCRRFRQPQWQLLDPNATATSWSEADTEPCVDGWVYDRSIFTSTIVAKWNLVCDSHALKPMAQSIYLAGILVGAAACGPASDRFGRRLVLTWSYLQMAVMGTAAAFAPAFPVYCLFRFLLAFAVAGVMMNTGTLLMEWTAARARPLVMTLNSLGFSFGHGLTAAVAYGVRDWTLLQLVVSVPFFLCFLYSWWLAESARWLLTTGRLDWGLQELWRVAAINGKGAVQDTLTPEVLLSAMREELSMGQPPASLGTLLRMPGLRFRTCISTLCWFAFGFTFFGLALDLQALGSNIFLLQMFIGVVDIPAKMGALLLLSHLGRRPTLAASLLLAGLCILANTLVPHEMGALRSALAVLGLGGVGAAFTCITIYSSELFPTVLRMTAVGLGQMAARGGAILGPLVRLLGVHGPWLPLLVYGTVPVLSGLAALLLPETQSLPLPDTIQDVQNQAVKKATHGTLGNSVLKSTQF
# assayInfo: Test for inhibition of uric acid transport using human URAT1-expressing cells;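 further: three stars up to 0.2 µM two stars 0.2-2 µM one star 2-20 µM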
# Assay type: cell-based
# cond: HEK 293 cells expressing human URAT1; 14C-labeled uric acid 25 μM; uptake 37° C. for 5 min
readoutType: Inhibitory Activity (IC50 of uric acid transport inhibition)

Example entries and their recorded answers appear below.
{"entrySmiles": "Cc1nc(-c2cccnc2F)n(Cc2cc(Cl)ccc2Cl)c1C(=O)O", "testResult": "* *"}
{"entrySmiles": "Cc1nc(-c2cccnc2)n(Cc2cc(Cl)sc2Cl)c1C(=O)O", "testResult": "* *"}
{"entrySmiles": "Cc1ccc2ccccc2c1Cn1c(C(=O)O)ccc1-c1cccnc1", "testResult": "* *"}
{"entrySmiles": "CCSc1nc(-c2cccnc2)n(Cc2cc(Cl)ccc2Cl)c1C(=O)O", "testResult": "* * *"}
{"entrySmiles": "O=C(NS(=O)(=O)C1CC1)c1ccc(-c2cccnc2)n1Cc1cccc2ccccc12", "testResult": "* * *"}

Quickly give me recorded Inhibitory Activity (IC50 of uric acid transport inhibition) for Cc1nc(-c2cncc(Cl)c2)n(Cc2cccc3ccccc23)c1C(=O)O
* *

Quickly give me recorded Inhibitory Activity (IC50 of uric acid transport inhibition) for CS(=O)(=O)NC(=O)c1c(C2CC2)nc(-c2cccnc2)n1Cc1cccc2ccsc12
* *

Quickly give me recorded Inhibitory Activity (IC50 of uric acid transport inhibition) for O=C(O)c1c(Cl)nc(-c2cccnc2)n1Cc1cccc2ccccc12
* *

Quickly give me recorded Inhibitory Activity (IC50 of uric acid transport inhibition) for Cc1nc(-c2cccnc2)n(Cc2cccc3ccsc23)c1C(=O)O
* *

Quickly give me recorded Inhibitory Activity (IC50 of uric acid transport inhibition) for CCc1nc(-c2cncc(Cl)c2)n(Cc2cc(Cl)ccc2Cl)c1C(=O)O
* * *

###

# subjectOfTest: human URAT1 (Homo sapiens)
# Construct: Full-length cDNA of human URAT1 (hURAT1)
# assayInfo: Test for inhibition of uric acid transport using human URAT1-expressing cells;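 further: three stars up to 0.2 µM two stars 0.2-2 µM one star 2-20 µM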
# Type: cell-based
# cond: HEK 293 cells expressing human URAT1; 14C-labeled uric acid 25 μM; uptake 37° C. for 5 min
readoutType: Inhibitory Activity (IC50 of uric acid transport inhibition)

Example entries and their recorded answers appear below.
{"entrySmiles": "Cc1nc(-c2cccnc2)n(Cc2ccccc2Br)c1C(=O)O", "subjectOfTest": "human URAT1 (Homo sapiens)", "testResult": "* *"}
{"entrySmiles": "Cc1ccc(Cl)c(Cn2c(-c3cccnc3)nc(C)c2C(=O)O)c1", "subjectOfTest": "human URAT1 (Homo sapiens)", "testResult": "* * *"}
{"entrySmiles": "O=C(O)c1c(C2CC2)nc(-c2cccnc2)n1Cc1cc(F)cc2ccsc12", "subjectOfTest": "human URAT1 (Homo sapiens)", "testResult": "* * *"}
{"entrySmiles": "Cc1nc(-c2cncc(OCC3CCCCC3)c2)n(Cc2cc(Cl)ccc2Cl)c1C(=O)O", "subjectOfTest": "human URAT1 (Homo sapiens)", "testResult": "* *"}
{"entrySmiles": "O=C(O)c1c(Cn2ccnc2)nc(-c2cncc(Cl)c2)n1Cc1cc(Cl)ccc1Cl", "subjectOfTest": "human URAT1 (Homo sapiens)", "testResult": "* *"}

Provide Inhibitory Activity (IC50 of uric acid transport inhibition), tested on human URAT1 (Homo sapiens), for Cc1ccc(C)c(Cn2c(C(=O)O)ccc2-c2cccnc2)c1 .
* * *

Provide Inhibitory Activity (IC50 of uric acid transport inhibition), tested on human URAT1 (Homo sapiens), for Cc1cncc(Oc2nc(C)c(C(=O)O)n2Cc2cc(Cl)ccc2Cl)c1 .
* * *

Provide Inhibitory Activity (IC50 of uric acid transport inhibition), tested on human URAT1 (Homo sapiens), for CS(=O)(=O)NC(=O)c1ccc(-c2cncc(Cl)c2)n1Cc1cc(Cl)ccc1Cl .
* * *

Provide Inhibitory Activity (IC50 of uric acid transport inhibition), tested on human URAT1 (Homo sapiens), for Cc1cncc(-c2ccc(C(=O)O)n2Cc2cc(Cl)ccc2Cl)c1 .
* * *
